All figures here come from the supplement of paper PMC4932681.

- Tested on: T-47D Tam2
- EXPERIMENT: relative IC50 (midpoint of fitted logistic curve, plateau may be below 50% inhibition; CellTiter-Glo viability); higher = less potent
- MEASUREMENT CONTEXT: 4-OH-tamoxifen in medium 1 µM; 72 h
QUANTITY: relative IC50 (nM)

Report relative IC50 for Cc1ccc(NC(=O)c2ccc(CN3CCN(C)CC3)cc2)cc1Nc1nc(-c2cccnc2)cs1 tested on T-47D Tam2.
3230

P. CC(C)C[C@H](NC(=O)[C@H](CCc1ccccc1)NC(=O)CN1CCOCC1)C(=O)N[C@@H](Cc1ccccc1)C(=O)N[C@@H](CC(C)C)C(=O)[C@@]1(C)CO1
Q. CN1CC[C@H](c2c(O)cc(O)c3c(=O)cc(-c4ccccc4Cl)oc23)[C@H](O)C1
Which entry has a larger number for relative IC50, P or Q ? // caller expects the label of the chosen entry
Q
(Q: 184 nM, P: 33.4 nM)

###

Listing of recorded relative IC50 by entry.
- System: MCF-7 Tam1
- EXPERIMENT: relative IC50 (midpoint of fitted logistic curve, plateau may be below 50% inhibition; CellTiter-Glo viability); higher = less potent
- MEASUREMENT CONTEXT: 4-OH-tamoxifen in medium 1 µM; 72 h

Item C1CN1c1nc(N2CC2)nc(N2CC2)n1 has what recorded relative IC50?
> 10 µM

Item C[C@H]1C[C@@H]2[C@H]([C@@H](O)C[C@@]3(C)[C@H]2CC[C@]3(O)C(=O)CO)[C@@]2(C)C=CC(=O)C=C12 has what recorded relative IC50?
> 10 µM

Item NCCCNCCSP(=O)(O)O has what recorded relative IC50?
> 10 µM

***
Item CC(=O)O[C@@]12CO[C@@H]1C[C@H](O)[C@@]1(C)C(=O)[C@H](O)C3=C(C)[C@@H](OC(=O)[C@H](O)[C@@H](NC(=O)OC(C)(C)C)c4ccccc4)C[C@@](O)([C@@H](OC(=O)c4ccccc4)[C@H]21)C3(C)C has what recorded relative IC50?
> 1 µM

Item C/C(=C\c1csc(C)n1)[C@@H]1C[C@@H]2O[C@]2(C)CCC[C@H](C)[C@H](O)[C@@H](C)C(=O)C(C)(C)[C@@H](O)CC(=O)O1 [Patupilone (Epothilone B)] has what recorded relative IC50?
> 1 µM

Item CCOc1cc2ncc(C#N)c(Nc3ccc(OCc4ccccn4)c(Cl)c3)c2cc1NC(=O)/C=C/CN(C)C has what recorded relative IC50?
> 1 µM

###

- Test system: ZR-75-1 Tam1
- EXPERIMENT: relative IC50 (midpoint of fitted logistic curve, plateau may be below 50% inhibition; CellTiter-Glo viability); higher = less potent
- MEASUREMENT CONTEXT: 4-OH-tamoxifen in medium 1 µM; 72 h
Listing of recorded relative IC50 by entry.
Lab book: enter the figure in nM, no units written.

Item CO[C@H]1C[C@@H]2CC[C@@H](C)[C@@](O)(O2)C(=O)C(=O)N2CCCC[C@H]2C(=O)O[C@H]([C@H](C)C[C@@H]2CC[C@@H](O)[C@H](OC)C2)CC(=O)[C@H](C)/C=C(\C)[C@@H](O)[C@@H](OC)C(=O)[C@H](C)C[C@H](C)/C=C/C=C/C=C/1C [Sirolimus (Rapamycin)] has what recorded relative IC50?
4.48

Item Cn1cncc1[C@@](N)(c1ccc(Cl)cc1)c1ccc2c(c1)c(-c1cccc(Cl)c1)cc(=O)n2C [Tipifarnib (Zarnestra)] has what recorded relative IC50?
762

Item CCc1c2c(nc3ccc(OC(=O)N4CCC(N5CCCCC5)CC4)cc13)-c1cc3c(c(=O)n1C2)COC(=O)[C@]3(O)CC has what recorded relative IC50?
1390

Item NC1(c2ccc(-c3nc4ccn5c(=O)[nH]nc5c4cc3-c3ccccc3)cc2)CCC1 has what recorded relative IC50?
68.5

Item COc1cc([C@@H]2c3cc4c(cc3[C@@H](O[C@@H]3O[C@@H]5CO[C@@H](c6cccs6)O[C@H]5[C@H](O)[C@H]3O)[C@H]3COC(=O)[C@H]23)OCO4)cc(OC)c1O [Teniposide] has what recorded relative IC50?
1600

Item CC[C@H](Nc1ncnc2[nH]cnc12)c1nc2cccc(F)c2c(=O)n1-c1ccccc1 has what recorded relative IC50?
1140

Next, consider the following compound.
Item COc1ccc(-c2ccc3c(N4CCOC[C@@H]4C)nc(N4CCOC[C@@H]4C)nc3n2)cc1CO has what recorded relative IC50?
38.9

###

- Test system: MCF-7 Tam1
- EXPERIMENT: viability inhibition at highest dose (% inhibition); higher = more growth inhibition
- MEASUREMENT CONTEXT: 4-OH-tamoxifen in medium 1 µM; 72 h
Listing of recorded viability inhibition at highest dose by entry.
Reply: number alone, nothing else.

Solved cases (3 shown):
Item CC(C)Cn1cnc2c(N)nc3ccccc3c21 [Imiquimod] (drug 10000 nM) has what recorded viability inhibition at highest dose?
5.29

Item COCC[n+]1c2c(n(Cc3cnccn3)c1C)C(=O)c1ccccc1C2=O [YM155] (drug 10000 nM) has what recorded viability inhibition at highest dose?
98.9

Item CNC(=O)c1ccc(N2C(=S)N(c3ccc(C#N)c(C(F)(F)F)c3)C(=O)C2(C)C)cc1F [Enzalutamide (MDV 3100)] (drug 10000 nM) has what recorded viability inhibition at highest dose?
5.74

Next, consider the following compound.
Item Clc1ccc(C(c2ccccc2Cl)C(Cl)Cl)cc1 (centres undefined) [Mitotane] (drug 10000 nM) has what recorded viability inhibition at highest dose?
-2.99

###

Listing of recorded viability inhibition at highest dose by entry.
- Test system: BT-474
- EXPERIMENT: viability inhibition at highest dose (% inhibition); higher = more growth inhibition
- MEASUREMENT CONTEXT: 4-OH-tamoxifen in medium 1 µM; 72 h
Reply: number alone, nothing else.

Item CC[C@@H]1C(=O)OC[C@@H]1Cc1cncn1C [Pilocarpine] (drug 40000 nM) has what recorded viability inhibition at highest dose?
-6.73

Item C=CC(=O)Nc1cc2c(Nc3ccc(F)c(Cl)c3)ncnc2cc1OCCCN1CCOCC1 [Canertinib] (drug 10000 nM) has what recorded viability inhibition at highest dose?
92.3

Item CCCCCOC(=O)Nc1nc(=O)n([C@@H]2O[C@H](C)[C@@H](O)[C@H]2O)cc1F [Capecitabine] (drug 10000 nM) has what recorded viability inhibition at highest dose?
-7.23

***
Item O=C1CN2Cc3c(ccc(Cl)c3Cl)N=C2N1 [Anagrelide] (drug 10000 nM) has what recorded viability inhibition at highest dose?
-22.2

Item Cc1cccc(-c2nn3c(c2-c2ccnc4ccc(C(N)=O)cc24)CCC3)n1 (drug 1000 nM) has what recorded viability inhibition at highest dose?
-14

###

- Tested on: BT-474 Tam1
- EXPERIMENT: viability inhibition at highest dose (% inhibition); higher = more growth inhibition
- MEASUREMENT CONTEXT: 4-OH-tamoxifen in medium 1 µM; 72 h
QUANTITY: viability inhibition at highest dose
Reply: number alone, nothing else.

Solved cases (5 shown):
Item COCC[n+]1c2c(n(Cc3cnccn3)c1C)C(=O)c1ccccc1C2=O [YM155] (drug 10000 nM) has what recorded viability inhibition at highest dose?
99.4

Item O=C(O)CCCc1ccc(N(CCCl)CCCl)cc1 [Chlorambucil] (drug 10000 nM) has what recorded viability inhibition at highest dose?
-1.33

Item N#CCNC(=O)c1ccc(-c2ccnc(Nc3ccc(N4CCOCC4)cc3)n2)cc1 [Momelotinib (CYT-387)] (drug 10000 nM) has what recorded viability inhibition at highest dose?
38.6

Item CC1(C)NC(=O)N(c2ccc([N+](=O)[O-])c(C(F)(F)F)c2)C1=O [Nilutamide] (drug 10000 nM) has what recorded viability inhibition at highest dose?
-0.747

Item CC[C@@H]1C(=O)OC[C@@H]1Cc1cncn1C [Pilocarpine] (drug 40000 nM) has what recorded viability inhibition at highest dose?
4.36

***
Item CNC(=O)c1ccc(N2C(=S)N(c3ccc(C#N)c(C(F)(F)F)c3)C(=O)C2(C)C)cc1F [Enzalutamide (MDV 3100)] (drug 10000 nM) has what recorded viability inhibition at highest dose?
7.43

Item CO[C@H]1C[C@@H]2CC[C@@H](C)[C@@](O)(O2)C(=O)C(=O)N2CCCC[C@H]2C(=O)O[C@H]([C@H](C)C[C@@H]2CC[C@@H](O)[C@H](OC)C2)CC(=O)[C@H](C)/C=C(\C)[C@@H](O)[C@@H](OC)C(=O)[C@H](C)C[C@H](C)/C=C/C=C/C=C/1C [Sirolimus (Rapamycin)] (drug 1000 nM) has what recorded viability inhibition at highest dose?
21.7

Item COc1ccc(C2=N[C@@H](c3ccc(Cl)cc3)[C@@H](c3ccc(Cl)cc3)N2C(=O)N2CCNC(=O)C2)c(OC(C)C)c1 [Nutlin-3] (drug 10000 nM) has what recorded viability inhibition at highest dose?
33.4

Item CO[C@@H]1[C@H](N(C)C(=O)c2ccccc2)C[C@H]2O[C@]1(C)n1c3ccccc3c3c4c(c5c6ccccc6n2c5c31)C(=O)NC4 [Midostaurin (PKC412)] (drug 10000 nM) has what recorded viability inhibition at highest dose?
27.5

Item Nc1nc2[nH]cc(CCc3ccc(C(=O)N[C@@H](CCC(=O)O)C(=O)O)cc3)c2c(=O)[nH]1 [Pemetrexed] (drug 10000 nM) has what recorded viability inhibition at highest dose?
-2.78

Item Cn1c(=O)c(F)c(Nc2ccc(I)cc2F)c2c(=O)n(C[C@@H](O)CO)cnc21 [TAK-733] (drug 1000 nM) has what recorded viability inhibition at highest dose?
7.81

Item CCCCCCCCc1ccc(CCC(N)(CO)CO)cc1 [Fingolimod] (drug 10000 nM) has what recorded viability inhibition at highest dose?
96.8

Item C#Cc1cccc(Nc2ncnc3cc(OC)c(OCCCCCCC(=O)NO)cc23)c1 [CUDC-101] (drug 10000 nM) has what recorded viability inhibition at highest dose?
95.6
